# TARGET UNDER TEST: T1, human TREM2 (triggering receptor expressed on myeloid cells 2) (human) (UniProt Q9NZC2)
# T1 sequence (looked up): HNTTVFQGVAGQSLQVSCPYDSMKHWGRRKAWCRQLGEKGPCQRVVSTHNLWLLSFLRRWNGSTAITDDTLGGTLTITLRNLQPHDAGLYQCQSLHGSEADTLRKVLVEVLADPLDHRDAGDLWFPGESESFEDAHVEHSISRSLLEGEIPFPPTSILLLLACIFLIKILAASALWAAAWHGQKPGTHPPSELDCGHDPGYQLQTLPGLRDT
# TEST DESCRIPTION: 2nd screen, 100 nM Ab
RESULT TYPE: Binding Signal (fold over 6E7 parental antibody) (fold)

BINDER | ASSAY RESULT
6E7 antibody affinity modulation variant V45 (antibody, V domains shown) VH: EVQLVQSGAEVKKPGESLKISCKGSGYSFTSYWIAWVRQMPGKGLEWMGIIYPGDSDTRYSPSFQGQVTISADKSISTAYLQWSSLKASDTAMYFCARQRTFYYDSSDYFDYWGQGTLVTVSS VL: DIQMTQSPSSVSASVGDRVTITCRASQGISSFLAWYQQKPGKAPKLLIYAASSLQNGVPSRFSGSGSGTDFTLTISSLQPEDFATYFCQQADSFPRTFGQGTKLEIK | 0.53
6E7 antibody affinity modulation variant V35 (antibody, V domains shown) VH: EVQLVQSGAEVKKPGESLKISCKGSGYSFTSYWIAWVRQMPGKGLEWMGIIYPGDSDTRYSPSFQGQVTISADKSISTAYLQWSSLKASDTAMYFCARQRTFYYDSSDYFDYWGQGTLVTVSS VL: DIQMTQSPSSVSASVGDRVTITCRASQGISSWLAWYQQKPGKAPKLLIYAASSLQNGVPSRFSGSGSGTDFTLTISSLQPEDFATYFCQQAYSFPRTFGQGTKLEIK | 0.29
6E7 antibody affinity modulation variant V22 (antibody, V domains shown) VH: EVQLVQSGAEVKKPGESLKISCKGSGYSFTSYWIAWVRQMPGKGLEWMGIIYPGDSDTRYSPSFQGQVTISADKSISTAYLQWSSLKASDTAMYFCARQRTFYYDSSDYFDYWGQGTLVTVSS VL: DIQMTQSPSSVSASVGDRVTITCRASQGISSWLAWYQQKPGKAPKLLIYRASSLQNGVPSRFSGSGSGTDFTLTISSLQPEDFATYFCQQADSFPRTFGQGTKLEIK | 0.71

Hello, the source for this data is patent US20250019437A1, in case you need it.
